MEASUREMENT TARGET: cloned human 5-HT1A receptors (Homo sapiens, UniProt P08908)
Construct: expressed in transfected cells
Sequence (P08908 1-422): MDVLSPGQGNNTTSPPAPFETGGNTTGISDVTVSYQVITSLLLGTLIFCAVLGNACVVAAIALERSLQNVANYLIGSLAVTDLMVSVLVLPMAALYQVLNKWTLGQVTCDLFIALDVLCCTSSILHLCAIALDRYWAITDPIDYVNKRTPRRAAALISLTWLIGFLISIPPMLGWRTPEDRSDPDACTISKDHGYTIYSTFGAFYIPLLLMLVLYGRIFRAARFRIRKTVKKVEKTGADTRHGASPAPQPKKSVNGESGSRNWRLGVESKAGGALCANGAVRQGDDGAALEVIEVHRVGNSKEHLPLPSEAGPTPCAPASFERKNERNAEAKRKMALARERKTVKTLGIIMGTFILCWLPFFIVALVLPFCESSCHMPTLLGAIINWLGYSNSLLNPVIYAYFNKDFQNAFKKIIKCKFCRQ
RUN DESCRIPTION: 35S-GTPγS binding assay, 5-HT1A function
Assay type: biochemical
RECORDED CONDITIONS: antagonist potency, reversal of 8-OH-DPAT; read-out: 5-HT1A Function GTPγS IC50
Please assign Not satisfied whenever IC50 is at or above 300 nM, and Satisfied whenever it is below.

• NC(=O)c1cccc2c1CC(N(CCCc1c[nH]c3ccc(F)cc13)C1CCC1)CO2 (single isomer, unassigned; (-)) [Compound 134a] = Satisfied
• CCCN(CC1CCc2[nH]c3ccc(F)cc3c2C1)[C@H]1COc2c(F)ccc(C(N)=O)c2C1 (single isomer, unassigned; (+)) [Compound 177b] = Satisfied
• CCCN(CCCCc1c[nH]c2ccc(F)cc12)C1COc2c(F)ccc(C(N)=O)c2C1 (stereo not drawn) [Compound 81] = Not satisfied
• CC(C)NC(=O)c1ccc(F)c2c1CC(N(CCCc1c[nH]c3ccc(F)cc13)C1CCC1)CO2 (stereo not drawn) [Compound 63] = Not satisfied
• CCN(CCCc1c[nH]c2c(Cl)cccc12)C1COc2c(F)ccc(C(N)=O)c2C1 (stereo not drawn) [Compound 110] = Satisfied
• NC(=O)c1ccc(F)c2c1CC(N(CCCCn1ccc3ccc(F)cc31)C1CCC1)CO2 (stereo not drawn) [Compound 196] = Not satisfied
• CCCN(C(C)CCCc1c[nH]c2ccc(F)cc12)C1COc2c(F)ccc(C(N)=O)c2C1 (single isomer, unassigned; (+)) [Compound 14a] = Not satisfied
• COc1cccc2c(CCCCN(CC3CC3)C3COc4c(F)ccc(C(N)=O)c4C3)coc12 (stereo not drawn) [Compound 170] = Satisfied
• COc1cccc2c(CCCN(C3CCC3)C3COc4c(F)ccc(C(N)=O)c4C3)c[nH]c12 (stereo not drawn) [Compound 102] = Not satisfied
• COC(=O)c1ccc(F)c2c1CC(N(CCCc1c[nH]c3ccc(F)cc13)C1CCC1)CO2 (stereo not drawn) [Compound 11] = Not satisfied
• COc1cccc2c1CC(N(CCCc1c[nH]c3ccc(F)cc13)C1CCC1)CO2 (stereo not drawn) [Compound 34] = Not satisfied
• COc1cccc2c(CCCN(CC3CC3)C3COc4c(F)ccc(C(N)=O)c4C3)c[nH]c12 (stereo not drawn) [Compound 103] = Not satisfied
• NC(=O)c1ccc(F)c2c1CC(N(CCCCn1ccc3cccc(F)c31)C1CCC1)CO2 (stereo not drawn) [Compound 192] = Not satisfied
• NC(=O)c1ccc(F)c2c1CC(N(CCCCn1ccc3ccc(F)cc31)CC1CC1)CO2 (stereo not drawn) [Compound 195] = Not satisfied
• COc1ccc2[nH]cc(CCCN(CC3CC3)C3COc4c(F)ccc(C(N)=O)c4C3)c2c1 (stereo not drawn) [Compound 108] = Satisfied
